meta.source: BigSolDB 2.1

Details: in acetonitrile, 278.15 K
measurementName: solubility (mole fraction)
Please give only the number in your answer, with no unit.

Task item: // solubility (mole fraction) lookup, key: CCOC(=O)C1(c2ccccc2)CCN(CCC(C#N)(c2ccccc2)c2ccccc2)CC1
Reply: 0.00208

----------
Conditions: in methanol, 298.15 K
measurementName: solubility (mole fraction)
Please give only the number in your answer, with no unit.

Task item: // solubility (mole fraction) lookup, key: CCOC(=O)C1(c2ccccc2)CCN(CCC(C#N)(c2ccccc2)c2ccccc2)CC1
Reply: 0.00759

----------
Conditions: in ethanol, 308.15 K
measurementName: solubility (mole fraction)
Please give only the number in your answer, with no unit.

Task item: // solubility (mole fraction) lookup, key: CCOC(=O)C1(c2ccccc2)CCN(CCC(C#N)(c2ccccc2)c2ccccc2)CC1
Reply: 0.00277
